Source of measurements: patent US20260055083A1

- studySystem: APOL1 G2 (Homo sapiens, UniProt O14791, DEL388-389)
- Construct: expressed in transfected cells; host or cells: HEK293/T-REx APOL1 G2 clone #2, doxycycline-inducible
- Sequence (O14791 with tags, fused parts or gaps DEL388-389): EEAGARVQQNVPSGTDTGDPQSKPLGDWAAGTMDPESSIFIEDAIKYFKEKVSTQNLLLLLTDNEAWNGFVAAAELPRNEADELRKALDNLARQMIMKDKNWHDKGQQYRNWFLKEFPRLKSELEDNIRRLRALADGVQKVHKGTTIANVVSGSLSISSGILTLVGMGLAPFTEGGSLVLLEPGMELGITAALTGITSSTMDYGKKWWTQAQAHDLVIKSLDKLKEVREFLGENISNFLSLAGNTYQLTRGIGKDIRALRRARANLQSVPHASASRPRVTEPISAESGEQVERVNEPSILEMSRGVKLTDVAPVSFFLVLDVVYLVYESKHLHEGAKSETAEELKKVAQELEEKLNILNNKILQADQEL
- methodDescription: APOL1 G2 FLIPR calcium influx assay (HEK T-REx/GCaMP6f/APOL1 G2 K6.3 cells)
- Assay type: cell-based
- reportedConditions: HEK293 clone expressing GCaMP6f, doxycycline-induced APOL1 G2; prevention of calcium influx; geometric mean of at least 2 assay runs
reportedProperty: AC50 (nM)

> print(dat)
                                   compound                               studysystem  reportedproperty  experimentalvalue
1  C[C@@H]1CN(C(CO)Cc2cc(Cl)cc(C#N)c2)C[C@H]1COc1ccc(S(C)(=O)=O)cc1 (single isomer, unassigned) [Compound 122]  APOL1 G2 (Homo sapiens, UniProt O14791, DEL388-389)              AC50               1110
2  C[C@@H]1CN(CC(CO)c2cc(Cl)cc(C#N)c2)C[C@H]1COc1ccc(S(C)(=O)=O)cc1 (stereo partly drawn) [Compound 126]  APOL1 G2 (Homo sapiens, UniProt O14791, DEL388-389)              AC50               1740
3  C[C@@H]1CN(C(CO)Cc2cccc(Cl)c2)C[C@H]1COc1ccc(S(C)(=O)=O)cc1 (single isomer, unassigned) [Compound 116]  APOL1 G2 (Homo sapiens, UniProt O14791, DEL388-389)              AC50               1700

P. C[C@@H]1CN(C2CCc3ccc(Cl)cc3C2)C[C@H]1COc1ccc(S(C)(=O)=O)cc1 (single isomer, unassigned) [Compound 15]
Q. CS(=O)(=O)c1ccc(OC[C@@H]2CN(CCc3cccc(Cl)c3)C[C@H]2CO)cc1
R. C[C@@H]1C[C@H](COc2ccc(S(=O)(=O)CCCS(C)(=O)=O)cc2)CN1C1CCc2ccc(C#N)cc2C1 (single isomer, unassigned) [Compound 35]
### Prompt Ordering: ascending AC50. Give the labels in the order specified.
### Response Q, R, P

* * *

- studySystem: APOL1 G2 (Homo sapiens, UniProt O14791, DEL388-389)
- methodDescription: APOL1 G2 HEK293 rescue of cell death caused by overexpression of APOL1 (CellTiter-Glo)
- reportedConditions: HEK293/T-REx APOL1 G2 clone #2, doxycycline induction, 17 hours, CellTiter-Glo luminescence; reversal of cell death; geometric mean of at least 2 assay runs
reportedProperty: EC50 (µM)
Give your result in µM as a bare value.

> print(dat)
                                   molecule  experimentalvalue
1  C[C@@H]1C[C@H](COc2ccc(S(=O)(=O)CCS(C)(=O)=O)cc2)CN1C1CCc2c(C#N)cc(Cl)cc2C1 (stereo partly drawn) [Compound 46]              0.418
2  C[C@@H]1C[C@H](COc2ccc(S(=O)(=O)CCCS(C)(=O)=O)cc2)CN1C1CCc2c(C#N)cc(Cl)cc2C1 (stereo partly drawn) [Compound 43]               0.35
3  C[C@@H]1C[C@H](COc2ccc(S(=O)(=O)C3CNC3)cc2)CN1C1CCc2ccc(C#N)cc2C1 (single isomer, unassigned) [Compound 27]              0.145
4  C[C@@H]1C[C@H](COc2ccc(S(=O)(=O)CCO)cc2)CN1C1CCc2ccc(Cl)cc2C1 (single isomer, unassigned) [Compound 62]              0.201

The value of EC50 measured for the molecule C[C@@H]1CN(CCc2cc(Cl)cc(C#N)c2)C[C@H]1COc1ccc(S(C)(=O)=O)nc1 turned out to be 0.186

// EC50 lookup, molecule = C[C@@H]1CN(C(CO)Cc2cc(Cl)cc(C#N)c2)C[C@H]1COc1ccc(S(C)(=O)=O)cc1 (single isomer, unassigned) [Compound 122] , result: 0.789
